# tgt: CDK2/Cyclin E1 (Homo sapiens (Human), UniProt P24941)
# assay: biochemical
# experimental setup: CDK2_Ki (nM), phosphorylated CDK2/Cyclin E1, 150 μM ATP, Morrison tight-binding fit
Ki strictly less than 1 nM = YES. Otherwise NO.

Field: example entries. Status: answers known.
compound | discrete label
CS(=O)(=O)N1CCC(Nc2ncc3cc(N)c(=O)n(C4CCCC4)c3n2)CC1 | NO
CCS(=O)(=O)N1CCC(Nc2ncc3cc(C)c(=O)n([C@@H]4CCC[C@@]4(C)O)c3n2)CC1 (single isomer, unassigned) | YES
COCc1cc2cnc(NC3CCN(S(C)(=O)=O)CC3)nc2n([C@@H]2CCC[C@@H]2C)c1=O | NO

Data request: Field: below-cutoff. Rule: recorded Ki strictly less than 1 nM. Subject: "C[C@H]1CC[C@@H](O)C[C@@H]1n1c(=O)ccc2cnc(NC3CCN(S(C)(=O)=O)CC3)nc21"
Data returned: NO

Data request: Hello, is Ki of the following compound strictly smaller than 1 nM? Cc1cc2cnc(NC3CCN(S(C)(=O)=O)CC3)nc2n(C2CCCCC(O)C2)c1=O (single isomer, unassigned; isomer c) [Example 225]
Data returned: NO

Data request: Problem: For the compound CS(=O)(=O)N1CCC(Nc2ncc3ccc(=O)n([C@H]4CC[C@H](O)C4)c3n2)CC1 (single isomer, unassigned) , is Ki under 1 nM?
Data returned: NO

* * *

# tgt: CDK2/Cyclin E1 (Homo sapiens (Human), UniProt P24941)
# assay: biochemical
# experimental setup: CDK2_Ki (nM), phosphorylated CDK2/Cyclin E1, 150 μM ATP, Morrison tight-binding fit
measurement type: Ki (nM)
Answers are plain numbers, in nM.

compound | tgt | readout units | Ki
C[C@@]1(O)CCC[C@H]1n1c(=O)ccc2cnc(NC3CCN(S(=O)(=O)CF)CC3)nc21 (single isomer, unassigned) | CDK2/Cyclin E1 (Homo sapiens (Human), UniProt P24941) | nM | 0.27
CC(=O)c1c(C)c2cnc(NC3CCN(S(C)(=O)=O)CC3)nc2n([C@H]2CCC[C@]2(C)O)c1=O (single isomer, unassigned) | CDK2/Cyclin E1 (Homo sapiens (Human), UniProt P24941) | nM | 9.04
Cc1cc2cnc(NC3CCN(S(C)(=O)=O)CC3)nc2n([C@@H]2C[C@H](O)C[C@@H]2C)c1=O (single isomer, unassigned) | CDK2/Cyclin E1 (Homo sapiens (Human), UniProt P24941) | nM | 2.92

Data request: Please indicate recorded Ki of CNS(=O)(=O)N1CCC(Nc2ncc3cc(C(F)F)c(=O)n([C@H]4CCC[C@]4(C)O)c3n2)CC1 (single isomer, unassigned) measured with CDK2/Cyclin E1 (Homo sapiens (Human), UniProt P24941).
Data returned: 3.24

* * *

Would you kindly list Ki for each of these compounds?
# tgt: CDK2/Cyclin E1 (Homo sapiens (Human), UniProt P24941)
# assay: biochemical
# experimental setup: CDK2_Ki (nM), phosphorylated CDK2/Cyclin E1, 150 μM ATP, Morrison tight-binding fit
One number for each entry, in nM.

Use these answered entries as a reference point.
compound | readout units | Ki
C=CCc1cc2cnc(NC3CCN(S(C)(=O)=O)CC3)nc2n(C2CCCC2)c1=O [Example 139] | nM | 4.05
C[C@@]1(O)CCC[C@H]1n1c(=O)ccc2cnc(NC3CCN(S(=O)(=O)CC4CC4)CC3)nc21 (single isomer, unassigned) [Example 90] | nM | 0.25
NS(=O)(=O)N1CCC(Nc2ncc3ccc(=O)n(C4CCCCCC4)c3n2)CC1 [Example 21] | nM | 0.29

Hi, could you look up Ki for each item in my list?
1. C[C@]1(O)CCC[C@@H]1n1c(=O)ccc2cnc(NC3CCN(S(=O)(=O)C(F)(F)F)CC3)nc21 (single isomer, unassigned) [Example 89]
2. C[C@]1(O)CCC[C@@H]1n1c(=O)ccc2cnc(NC3CCN(S(=O)(=O)NC[C@@H]4CCCO4)CC3)nc21 (single isomer, unassigned) [Example 63]
3. Cc1cc2cnc(NC3CCN(S(=O)(=O)NC[C@H]4CCCO4)CC3)nc2n([C@@H]2CCC[C@@]2(C)O)c1=O (single isomer, unassigned) [Example 102]

Data returned:
17.6
4.51
0.24

Data request: Please supply the value of reported Ki for the item CS(=O)(=O)N1CCC(Nc2ncc3ccc(=O)n([C@@H]4CCC[C@@H](O)C4)c3n2)CC1 [Example 3]
Data returned: 0.26

* * *

# tgt: CDK2/Cyclin E1 (Homo sapiens (Human), UniProt P24941)
# assay: biochemical
# experimental setup: CDK2_Ki (nM), phosphorylated CDK2/Cyclin E1, 150 μM ATP, Morrison tight-binding fit
Provide the reported Ki of each item.

Previously resolved entries follow.
compound | Ki
Cc1cc2cnc(NC3CCN(S(C)(=O)=O)CC3)nc2n([C@@H]2CCC[C@@H](O)C2)c1=O (single isomer, unassigned) | 0.84 nM
CCS(=O)(=O)N1CCC(Nc2ncc3cc(C)c(=O)n([C@H]4CCC[C@]4(C)O)c3n2)CC1 (single isomer, unassigned) | 2.14 nM

Data request: Indicate the recorded Ki value for this compound: Cc1cc2cnc(NC3CCN(S(=O)(=O)CC4CC4)CC3)nc2n([C@@H]2CCC[C@@]2(C)O)c1=O (single isomer, unassigned)
Data returned: 0.15 nM

* * *

# tgt: CDK6/Cyclin D1 (Homo sapiens (Human), UniProt Q00534)
# Sequence (Q00534 whole entry): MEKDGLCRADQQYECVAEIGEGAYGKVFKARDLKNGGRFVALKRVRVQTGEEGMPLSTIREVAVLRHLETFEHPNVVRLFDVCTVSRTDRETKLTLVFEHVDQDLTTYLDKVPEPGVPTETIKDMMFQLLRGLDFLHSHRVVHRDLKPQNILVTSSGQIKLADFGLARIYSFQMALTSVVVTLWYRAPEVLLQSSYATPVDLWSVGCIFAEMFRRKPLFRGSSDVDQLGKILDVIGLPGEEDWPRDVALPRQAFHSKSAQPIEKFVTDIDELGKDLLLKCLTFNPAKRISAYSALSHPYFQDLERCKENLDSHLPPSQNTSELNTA
# Sequence (P24385 whole entry partner): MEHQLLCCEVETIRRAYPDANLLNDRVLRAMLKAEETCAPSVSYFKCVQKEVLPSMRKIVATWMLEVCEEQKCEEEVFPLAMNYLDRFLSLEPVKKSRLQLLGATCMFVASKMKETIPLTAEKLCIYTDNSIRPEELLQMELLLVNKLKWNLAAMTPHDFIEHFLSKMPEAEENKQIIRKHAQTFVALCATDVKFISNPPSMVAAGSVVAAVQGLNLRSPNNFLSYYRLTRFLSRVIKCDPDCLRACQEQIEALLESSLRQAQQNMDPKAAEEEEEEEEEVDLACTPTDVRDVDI
# assay: biochemical
# experimental setup: CDK6_Ki (nM), non-phosphorylated CDK6/Cyclin D1, 2 mM ATP, Morrison fit
measurement type: Ki (nM)
Answers are plain numbers, in nM.

Look over these answered cases.
compound | tgt | measurement type | reading
CS(=O)(=O)N1CC[C@H](Nc2ncc3cc(CCO)c(=O)n(C4CCCC4)c3n2)[C@@H](F)C1 (single isomer, unassigned) | CDK6/Cyclin D1 (Homo sapiens (Human), UniProt Q00534) | Ki | 1.94
Cc1cc2cnc(NC3CCN(S(=O)(=O)C(F)(F)F)CC3)nc2n([C@H]2CCC[C@]2(C)O)c1=O (single isomer, unassigned) | CDK6/Cyclin D1 (Homo sapiens (Human), UniProt Q00534) | Ki | 9.5
CS(=O)(=O)N1CCC(Nc2ncc3cc(Cl)c(=O)n([C@H]4CC[C@H](O)C4)c3n2)CC1 (single isomer, unassigned) | CDK6/Cyclin D1 (Homo sapiens (Human), UniProt Q00534) | Ki | 1.11

Now consider a different compound.
Data request: Please list Ki recorded for the compound CS(=O)(=O)N1CC[C@@H](Nc2ncc3cc(N)c(=O)n(C4CCCC4)c3n2)[C@@H](F)C1 (single isomer, unassigned; isomer a)
Data returned: 7.29

The reported numbers originate from patent US10233188B2.
